Molecular target: T1, recombinant biotinylated human PAR2 extracellular domain (residues 1-75), N-terminal AviTag, C-terminal Flag … (human, UniProt P55085 26-75, biotin on the AviTag (enzymatic biotinylation))
T1 construct: also called Bio-human-PAR2 ECD; human PAR2 ECD; not shown: N-terminal AviTag (Avidity LLC); C-terminal Flag and poly Histidine tags
T1 sequence (P55085 26-75): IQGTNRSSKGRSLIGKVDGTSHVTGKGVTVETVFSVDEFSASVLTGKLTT
Assay: HTRF competition with Dylight650-Par0067 IgG, IgG
Would you kindly list Fold IC50 (pH 6.0 v pH 7.4) for each of these binders?
# output: numeric value plus its unit

Items follow; give Fold IC50 (pH 6.0 v pH 7.4) for each.
1. PaB670146 IgG (antibody, V domains shown, IgG1-TM (L234F, L235E, P331S), human lambda light chain) VH: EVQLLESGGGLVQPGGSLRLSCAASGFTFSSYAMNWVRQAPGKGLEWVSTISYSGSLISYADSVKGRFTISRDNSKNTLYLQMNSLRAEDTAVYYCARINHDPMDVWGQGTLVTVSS VL: SIELTQPPSVSVSPGQTASITCSGDNLGKKYVQWYQQKPGQSPVLVIYDDSNRPSGIPERFSGSNSGNTATLTISGTQAMDEADYYCHTWHHHPTHGEHNVFGGGTKLTVL
2. PaB670045 IgG (antibody, V domains shown, IgG1-TM (L234F, L235E, P331S), human lambda light chain; also called ZZ1KX3-F01) VH: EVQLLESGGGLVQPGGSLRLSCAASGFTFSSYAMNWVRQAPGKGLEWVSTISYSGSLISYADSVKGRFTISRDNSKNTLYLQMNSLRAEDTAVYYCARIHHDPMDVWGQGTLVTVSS VL: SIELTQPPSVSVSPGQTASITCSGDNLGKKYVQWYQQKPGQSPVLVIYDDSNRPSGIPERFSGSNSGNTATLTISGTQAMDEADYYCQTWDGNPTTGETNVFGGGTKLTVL

1. 8.5 fold
2. 8.9 fold
